In this section, each of the binders is paired with its reported IC50, kinase assay PKA.
- system_under_test: protein kinase A (PKA)
- assay_info: cell-based or functional assay
Square brackets hold non-standard residues; d marks the D form. * marks the point of attachment. Cholesteryloxycarbonyl = CC(C)CCC[C@@H](C)[C@H]1CC[C@H]2[C@@H]3CC=C4C[C@@H](OC(=O)*)CC[C@]4(C)[C@H]3CC[C@]12C; Myristoyl = CCCCCCCCCCCCCC(=O)*; hLeu = CC(C)CC[C@H](N)C(=O)O; Nva = CCC[C@H](N)C(=O)O; Dap = NC[C@H](N)C(=O)O
measurement_kind: IC50, kinase assay PKA (µM)

• Cholesteryloxycarbonyl-RPR[Nva]Y[Dap][hLeu]-NH2 (SMILES CCC[C@H](NC(=O)[C@H](CCCNC(=N)N)NC(=O)[C@@H]1CCCN1C(=O)[C@H](CCCNC(=N)N)NC(=O)O[C@H]1CC[C@@]2(C)C(=CC[C@H]3[C@@H]4CC[C@H]([C@H](C)CCCC(C)C)[C@@]4(C)CC[C@@H]32)C1)C(=O)N[C@@H](Cc1ccc(O)cc1)C(=O)N[C@@H](CN)C(=O)N[C@@H](CCC(C)C)C(N)=O) [PTR 6164] = 10
• {Vitamin E succinate}-RPR[Nva]Y[Dap][hLeu]-NH2 [PTR 6244] = 10
• Cholesteryloxycarbonyl-RPR[Nva]YA[hLeu]-NH2 (SMILES CCC[C@H](NC(=O)[C@H](CCCNC(=N)N)NC(=O)[C@@H]1CCCN1C(=O)[C@H](CCCNC(=N)N)NC(=O)O[C@H]1CC[C@@]2(C)C(=CC[C@H]3[C@@H]4CC[C@H]([C@H](C)CCCC(C)C)[C@@]4(C)CC[C@@H]32)C1)C(=O)N[C@@H](Cc1ccc(O)cc1)C(=O)N[C@@H](C)C(=O)N[C@@H](CCC(C)C)C(N)=O) [PTR 6196] = 5
• Cholesteryloxycarbonyl-GRPR[Nva]YA[hLeu]-NH2 (SMILES CCC[C@H](NC(=O)[C@H](CCCNC(=N)N)NC(=O)[C@@H]1CCCN1C(=O)[C@H](CCCNC(=N)N)NC(=O)CNC(=O)O[C@H]1CC[C@@]2(C)C(=CC[C@H]3[C@@H]4CC[C@H]([C@H](C)CCCC(C)C)[C@@]4(C)CC[C@@H]32)C1)C(=O)N[C@@H](Cc1ccc(O)cc1)C(=O)N[C@@H](C)C(=O)N[C@@H](CCC(C)C)C(N)=O) [PTR 6198] = 5
• Myristoyl-GRPR[Nva]Y[Dap][hLeu]-NH2 (SMILES CCCCCCCCCCCCCC(=O)NCC(=O)N[C@@H](CCCNC(=N)N)C(=O)N1CCC[C@H]1C(=O)N[C@@H](CCCNC(=N)N)C(=O)N[C@@H](CCC)C(=O)N[C@@H](Cc1ccc(O)cc1)C(=O)N[C@@H](CN)C(=O)N[C@@H](CCC(C)C)C(N)=O) [PTR 6180] = 20
